// provenance: ChEMBL document CHEMBL1629642

- System: Monkeypox virus
- protocol_description: Antiviral activity against Monkeypox virus V81-I-179 infected in african green monkey BSC-40 cells assessed as reduction in virus-induced cytopathic effect
- Type: functional, organism-based
- condition_set: V81-I-179, BSC-40
attribute_measured: pEC50
Give only the number. pEC50 is defined as minus log10 of concentration in molar units.

## Input Fill in the blank: the reported pEC50 of O=C(NN1C(=O)[C@@H]2[C@@H]3C=C[C@@H]([C@H]4C[C@@H]34)[C@@H]2C1=O)c1ccc(C(F)(F)F)cc1 [TECOVIRIMAT] is ____.
## Output 7.49

====

- Tested on: Monkeypox virus
- protocol_description: Antiviral activity against Monkeypox virus V78-I-3945 infected in african green monkey BSC-40 cells assessed as reduction in virus-induced cytopathic effect
- Assay type: functional, organism-based
- condition_set: V78-I-3945, BSC-40
attribute_measured: EC50 (µM)
All answers are understood in µM, so give the number only.

## Input Fill in the blank: the reported EC50 of O=C(NN1C(=O)[C@@H]2[C@@H]3C=C[C@@H]([C@H]4C[C@@H]34)[C@@H]2C1=O)c1ccc(C(F)(F)F)cc1 [TECOVIRIMAT] is ____.
## Output 0.023
